biological target: Aryl hydrocarbon receptor (Homo sapiens) (UniProt P35869); experiment: qHTS assay to identify small molecule that activate the aryl hydrocarbon receptor (AhR) signaling pathway (AID 743085); conditions: HepG2 AhR-luc (HG2L7.5c1), luciferase, 24 h; series mostly up to 70.3 µM; note: nearly all actives have a fitted effect of over 15% in size;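 for activation: HG2L7.5c1 human HepG2 liver cells with stably integrated DRE-driven firefly reporter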
Sequence (P35869 whole entry, looked up): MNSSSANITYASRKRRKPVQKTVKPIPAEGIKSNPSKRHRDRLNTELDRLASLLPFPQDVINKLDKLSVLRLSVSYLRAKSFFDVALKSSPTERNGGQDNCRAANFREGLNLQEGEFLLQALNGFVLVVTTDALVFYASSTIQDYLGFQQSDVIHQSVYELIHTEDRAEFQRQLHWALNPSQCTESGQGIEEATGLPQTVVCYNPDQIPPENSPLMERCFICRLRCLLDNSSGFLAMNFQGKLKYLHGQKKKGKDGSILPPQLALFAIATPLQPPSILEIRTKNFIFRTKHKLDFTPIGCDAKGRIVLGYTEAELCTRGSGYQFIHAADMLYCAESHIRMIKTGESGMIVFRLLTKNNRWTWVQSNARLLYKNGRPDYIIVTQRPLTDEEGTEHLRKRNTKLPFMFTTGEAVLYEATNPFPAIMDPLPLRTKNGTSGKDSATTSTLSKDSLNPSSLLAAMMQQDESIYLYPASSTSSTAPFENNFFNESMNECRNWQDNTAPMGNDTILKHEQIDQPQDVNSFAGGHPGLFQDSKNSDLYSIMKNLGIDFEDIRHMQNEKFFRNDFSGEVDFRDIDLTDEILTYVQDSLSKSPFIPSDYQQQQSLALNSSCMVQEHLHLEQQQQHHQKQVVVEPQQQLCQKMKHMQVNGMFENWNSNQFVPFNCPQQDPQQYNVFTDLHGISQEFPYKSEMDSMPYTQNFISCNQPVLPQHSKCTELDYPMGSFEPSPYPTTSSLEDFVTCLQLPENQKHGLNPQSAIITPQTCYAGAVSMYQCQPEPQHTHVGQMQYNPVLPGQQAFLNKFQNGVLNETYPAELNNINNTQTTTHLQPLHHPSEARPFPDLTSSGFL
Results filed as inconclusive are left out. Calls of active or inactive are those of the source. Calls come from the whole dose curve; as a rule, active = well fitted activation curve with a large enough effect in the repeat runs; inconclusive = weak or mixed curves; inactive = no such curve, though single readings can be large or run the other way.
Assign a class; possible classes are t (active), f (inactive)

Below are worked cases with known answers.
Molecule	Category label
O=[N+]([O-])c1cc([N+](=O)[O-])c2ccccc2c1	t
CCCCCCCCCCCCCCCCCCn1cc[n+](C)c1	f
COc1ccc(OC)c(CC(C)N)c1 (centres undefined)	f

Request: I'd appreciate the recorded outcome for `N#CC(Cl)Cl` from this test.
Response: f

Request: I'd appreciate the recorded outcome for `C[C@]12CC[C@H]3[C@@H](CCC4=CC(=O)CC[C@@]43C)[C@@H]1CC[C@@H]2O` from this test.
Response: f

Request: I'd appreciate the recorded outcome for `Cc1cc(C(C)(C)c2cc(C)c(O)c(C)c2)cc(C)c1O` from this test.
Response: f

Request: I'd appreciate the recorded outcome for `N#CCCSCCC#N` from this test.
Response: f

Request: I'd appreciate the recorded outcome for `[Cl][Sb]([Cl])[Cl]` from this test.
Response: f
